measurement_target: T1, HLA-B07:02 (human)
T1 construct: Stability assay: E. coli-expressed biotinylated heavy chain with 125I-labelled b2m; MS: BAP-tagged HLA in HEK293T cells; Treated as one molecule
experiment: peptide-HLA affinity, Example 9
measure_name: Observed MHC affinity
Quick note: unit goes after the number.

Sample answers from the record:
What value of Observed MHC affinity has been reported for the following binder? FATLQRSSL
14 nM

Value lookup for Observed MHC affinity; key = KPKRDGYMF
28 nM

# get_value(readout='Observed MHC affinity', item= QPVLWTTPPL )
109 nM

Next:
Observed MHC affinity lookup needed for KPKRDGYMFL , thanks.
98 nM

Fill blank: measured Observed MHC affinity of the binder GPPARVPAV is ____.
221 nM

Taken from patent US20210275657A1.
